# System under test: Dual specificity protein kinase CLK4 (Homo sapiens) (UniProt Q9HAZ1)
# Sequence (Q9HAZ1 whole entry, looked up): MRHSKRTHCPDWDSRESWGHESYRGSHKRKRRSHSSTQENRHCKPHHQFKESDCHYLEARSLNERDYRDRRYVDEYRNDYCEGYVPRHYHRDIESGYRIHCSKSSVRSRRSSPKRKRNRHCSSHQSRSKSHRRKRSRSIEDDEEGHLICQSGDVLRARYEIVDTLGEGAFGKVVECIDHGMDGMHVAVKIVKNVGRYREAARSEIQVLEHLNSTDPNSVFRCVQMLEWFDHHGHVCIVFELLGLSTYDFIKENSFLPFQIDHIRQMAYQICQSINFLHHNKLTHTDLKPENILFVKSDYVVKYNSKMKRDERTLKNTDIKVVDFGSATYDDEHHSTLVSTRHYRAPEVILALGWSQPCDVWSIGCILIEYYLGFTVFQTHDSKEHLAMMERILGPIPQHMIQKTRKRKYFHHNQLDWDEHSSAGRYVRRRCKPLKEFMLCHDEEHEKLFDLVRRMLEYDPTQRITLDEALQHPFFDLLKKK
# Assay protocol: qHTS Assay for Inhibitors of CDC-like Kinase 4 (ADP-Glo Assay) (AID 1771); note: nearly all actives have a fitted effect of over 70% in size
# Conditions used: recombinant CLK4, ADP-Glo luminescence; series mostly up to 80 µM
Inconclusive results are not listed. Active and inactive are the calls of the source. Calls come from the whole dose curve; as a rule, active = well fitted inhibition curve with a large enough effect; inconclusive = small, poorly fitted or top-dose-only effect; inactive = flat fitted curve, though single readings scatter.
Could you please pick one outcome from this set? t (active), f (inactive)

Q: State the result this test recorded for COc1ccc2[nH]cc(CCNc3ncnc4ccc(-c5ccccc5OC)cc34)c2c1 .
A: t

Q: Item: COc1ccccc1CNc1ncncc1-c1ccccc1C(F)(F)F
A: f

Q: Item: O=c1c(CCc2ccccc2)nc2cnc(Nc3ccccc3)nc2n1C[C@H]1CCCO1
A: f

Q: Item: CN(C)c1ccc(-c2cncnc2NCCN2CCOCC2)cc1
A: f

Q: Item: c1ccc(CNc2nc(-c3cccnc3)nc3ccccc23)cc1
A: t

Q: Item: CCNc1ncc2nc(CCc3ccccc3)c(=O)n(CCC#N)c2n1
A: f

Q: Item: CN(C)c1ncc2nc(CCc3ccccc3)c(=O)n(Cc3cccs3)c2n1
A: f

Q: Item: CS(=O)(=O)Nc1cccc(-c2nc(Nc3ccncc3)c3ccccc3n2)c1
A: t

Q: Item: CN(C)C(=O)c1ccc(-c2cc(NCc3ccccc3)ncn2)cc1
A: t

Q: Item: Cc1nc2cnc(N3CCN(C)CC3)nc2n(CCc2ccccc2)c1=O
A: f

Q: Item: Cc1nc2cnc(Oc3cccc(Cl)c3)nc2n(Cc2ccc(F)cc2)c1=O
A: f

Q: Item: COc1ccccc1-c1ccc2ncnc(N3CCNCC3)c2c1
A: t

Q: Item: CN(Cc1ccco1)c1nc(-c2ccccc2C(F)(F)F)nc2ccccc12
A: t

Q: Item: COc1ccccc1CNc1ccnc(-c2cccc(NS(C)(=O)=O)c2)n1
A: t

Q: Item: Clc1ccccc1-c1nc(Nc2ccncc2)c2ccccc2n1
A: t

Q: Item: COc1ccccc1-c1nc(N2CCN(C)CC2)c2ccccc2n1
A: f

Q: Item: Clc1ccccc1-c1nc(-n2ccnc2)c2ccccc2n1
A: t

Q: Item: COc1ccc(CNc2ncncc2-c2ccccc2OC)c(OC)c1
A: f

Q: Item: CN(Cc1ccco1)c1cc(-c2ccc3c(c2)OCO3)ncn1
A: t

Q: Item: COCCn1c(=O)c(CCc2ccccc2)nc2cnc(OCc3ccccc3)nc21
A: f

Q: Item: COc1ccc2[nH]cc(CCNc3cc(-c4cccc(C#N)c4)ncn3)c2c1
A: t

Q: Item: COc1ccc(Oc2ncc3nc(-c4ccc(F)cc4)c(=O)n(C[C@H]4CCCO4)c3n2)cc1
A: f

Q: Item: CN1CCN(c2ncnc3ccc(-c4ccccc4C(F)(F)F)cc23)CC1
A: f

Q: Item: COc1cccc(Nc2ncc3ncc(=O)n(CCC#N)c3n2)c1
A: t

Q: Item: COc1ccccc1-c1nc(Nc2ccncc2)c2ccccc2n1
A: t

Q: Item: COCCn1c(=O)c(CCc2ccccc2)nc2cncnc21
A: f

Q: Item: CN(C)c1ncc2nc(CCc3ccccc3)c(=O)n(CCc3ccccc3)c2n1
A: f

Q: Item: COc1cccc(-c2nc(N(C)C)c3ccccc3n2)c1
A: t

Q: Item: COCCn1c(=O)c(-c2cccc(C#N)c2)nc2cnc(Oc3cccc(Cl)c3)nc21
A: f

Q: Item: Cc1ccccc1-c1nc(Nc2ccncc2)c2ccccc2n1
A: t

Q: Item: COc1ccc2[nH]cc(CCNc3cc(-c4ccccc4OC)ncn3)c2c1
A: t

Q: Item: COc1ccc(-c2nc3cnc(N4CCN(C)CC4)nc3n(CCc3ccccc3)c2=O)cc1
A: f

Q: Item: CN1CCN(c2ncc3nc(-c4cccc(C#N)c4)c(=O)n(CCc4ccccc4)c3n2)CC1
A: f

Q: Item: COc1ccccc1-c1nccc(NCc2cccs2)n1
A: f
